# protocol: Cytotoxicity against LPS-induced mouse BV2 cells assessed as cell viability after 24 hrs by MTT assay
# Assay type: cell-based, BV-2
# Parameters: concentration or dose not given beside the values
# test_parameters: read-out: Activity
Reported viability at 24 h values follow for various compounds
Your answer should be a plain number; it is taken to be in %.

Worked set:
compound | viability at 24 h [%]
CC(CC(=O)C[C@@H](C)[C@H]1C[C@H](O)[C@@]2(C)C3=C(C(=O)C[C@]12C)[C@@]1(C)CC[C@H](O)C(C)(C)[C@@H]1C[C@@H]3O)C(=O)O (stereo partly drawn) | 90.7
C/C(=C/C(=O)CC(C)C(=O)O)[C@H]1CC(=O)[C@@]2(C)C3=C(C(=O)[C@@H](O)[C@]12C)[C@@]1(C)CC[C@H](O)C(C)(C)[C@@H]1CC3=O (stereo partly drawn) | 94.5
CC(CC(=O)C[C@@H](C)[C@H]1CC(=O)[C@@]2(C)C3=C(C(=O)[C@@H](O)[C@]12C)[C@@]1(C)CC[C@H](O)C(C)(C)[C@@H]1CC3=O)C(=O)O (stereo partly drawn) | 91.6
C/C(=C/C(=O)CC(C)C(=O)O)[C@H]1C[C@H](O)[C@@]2(C)C3=C(C(=O)C[C@]12C)[C@@]1(C)CCC(=O)C(C)(C)[C@@H]1C[C@@H]3O (stereo partly drawn) | 92.5

Summary for this compound, CC(CC(=O)C[C@@H](C)[C@H]1C[C@H](O)[C@@]2(C)C3=C(C(=O)C[C@]12C)[C@@]1(C)CCC(=O)C(C)(C)[C@@H]1CC3)C(=O)O (stereo partly drawn) : viability at 24 h is 95.2

Summary for this compound, CC(CC(=O)C[C@@H](C)[C@H]1C[C@H](O)[C@@]2(C)C3=C(C(=O)C[C@]12C)[C@@]1(C)CCC(=O)C(C)(C)[C@@H]1CC3=O)C(=O)O (stereo partly drawn) : viability at 24 h is 93.7

Summary for this compound, C/C(=C/C(=O)CC(C)C(=O)O)[C@H]1CC(=O)[C@@]2(C)C3=C(C(=O)[C@@H](O)[C@]12C)[C@@]1(C)CC[C@H](O)C(C)(C)[C@@H]1C[C@@H]3O (stereo partly drawn) : viability at 24 h is 93.5

Summary for this compound, C/C(=C/C(=O)CC(C)C(=O)O)[C@H]1CC(=O)[C@@]2(C)C3=C(C(=O)C[C@]12C)[C@@]1(C)CCC(=O)C(C)(C)[C@@H]1C[C@@H]3O (stereo partly drawn) : viability at 24 h is 96.5

Summary for this compound, C/C(=C\CC[C@@H](C)[C@H]1CC[C@@]2(C)C3=CC[C@H]4C(C)(C)[C@@H](O)CC[C@]4(C)C3=CC[C@]12C)CO : viability at 24 h is 91.3

Summary for this compound, CC(CC(=O)C[C@@H](C)[C@H]1C[C@H](O)[C@@]2(C)C3=C(C(=O)C[C@]12C)[C@@]1(C)CC[C@H](O)[C@@](C)(CO)[C@@H]1C[C@@H]3O)C(=O)O (stereo partly drawn) : viability at 24 h is 97.8

Summary for this compound, CC(CC(=O)C[C@@H](C)[C@H]1CC(=O)[C@@]2(C)C3=C(C(=O)[C@@H](O)[C@]12C)[C@@]1(C)CCC(=O)C(C)(C)[C@@H]1C[C@@H]3O)C(=O)O (stereo partly drawn) : viability at 24 h is 92.3

Summary for this compound, CC(CC(=O)C[C@@H](C)[C@H]1CC(=O)[C@@]2(C)C3=C(C(=O)C[C@]12C)[C@@]1(C)CCC(=O)C(C)(C)[C@@H]1C[C@@H]3O)C(=O)O (stereo partly drawn) : viability at 24 h is 93.3

Summary for this compound, CC(=O)O[C@@H]1C(=O)C2=C(C(=O)C[C@H]3C(C)(C)C(=O)CC[C@]23C)[C@]2(C)C(=O)C[C@H](/C(C)=C\C(=O)CC(C)C(=O)O)[C@@]12C (stereo partly drawn) : viability at 24 h is 94.3

Summary for this compound, CC(=O)O[C@@H]1C(=O)C2=C([C@@H](O)C[C@H]3C(C)(C)[C@@H](O)CC[C@]23C)[C@]2(C)C(=O)C[C@H]([C@H](C)CC(=O)CC(C)C(=O)O)[C@@]12C (stereo partly drawn) : viability at 24 h is 98.5

Summary for this compound, CC(=O)O[C@@H]1C(=O)C2=C(C(=O)C[C@H]3C(C)(C)[C@@H](O)CC[C@]23C)[C@]2(C)C(=O)C[C@H](/C(C)=C\C(=O)CC(C)C(=O)O)[C@@]12C (stereo partly drawn) : viability at 24 h is 95.1

Summary for this compound, CC(CC(=O)C[C@@H](C)[C@H]1CC(=O)[C@@]2(C)C3=C(C(=O)C[C@]12C)[C@@]1(C)CCC(=O)C(C)(C)[C@@H]1CC3=O)C(=O)O (stereo partly drawn) : viability at 24 h is 97.5

Summary for this compound, C[C@H](CC[C@H](O)[C@](C)(O)CO)[C@H]1CC[C@@]2(C)C3=CC[C@H]4C(C)(C)C(=O)CC[C@]4(C)C3=CC[C@]12C : viability at 24 h is 85.5

Summary for this compound, CC(CC(=O)C[C@@H](C)[C@H]1C[C@H](O)[C@@]2(C)C3=C(C(=O)C[C@]12C)[C@@]1(C)CCC(=O)C(C)(C)[C@@H]1C[C@@H]3O)C(=O)O (stereo partly drawn) : viability at 24 h is 97.9
